- method-summary: Half life in BALB/c mouse at 10 mg/kg
- Type: ADME, organism-based
- conditions: in vivo

chemical-structure	half-life (h)
COc1cc(-n2cc(-c3ccc4nc(N)nc(N)c4c3)nn2)cc(OC)c1OC	31

---

- method-summary: AUCt in BALB/c mouse at 5 mg/kg
- Type: ADME, organism-based
- Parameters: dose 5 mg/kg
- conditions: in vivo

chemical-structure	AUC(0-t) [ng·h/mL]
COc1cc(-n2cc(-c3ccc4nc(N)nc(N)c4c3)nn2)cc(OC)c1OC	215

---

- method-summary: Half life in BALB/c mouse at 20 mg/kg
- Type: ADME, organism-based
- conditions: in vivo

chemical-structure	quantity-unit	half-life
COc1cc(-n2cc(-c3ccc4nc(N)nc(N)c4c3)nn2)cc(OC)c1OC	min	1330

---

- System: HepG2
- method-summary: Cytotoxicity against human HepG2 cells assessed as reduction in cell viability incubated for 72 hrs by MTS assay
- Assay type: functional, cell-based
- conditions: HepG2, 72 h
pIC50: −log10 of the molar value.

chemical-structure	pIC50
COc1cc(-n2cc(-c3ccc4nc(N)nc(N)c4c3)nn2)cc(OC)c1OC	4.71
Cc1nc2ccc(CN(C)c3ccc(C(=O)N[C@@H](CCC(=O)O)C(=O)O)s3)cc2c(=O)[nH]1	5.02

---

- method-summary: Cmax in BALB/c mouse at 10 mg/kg
- Type: ADME, organism-based
- Design: dose 10 mg/kg
- conditions: in vivo

chemical-structure	Cmax, ng/mL
COc1cc(-n2cc(-c3ccc4nc(N)nc(N)c4c3)nn2)cc(OC)c1OC	39.9

---

- method-summary: Cmax in BALB/c mouse at 20 mg/kg
- Type: ADME, organism-based
- Parameters: dose 20 mg/kg
- conditions: in vivo

chemical-structure	Cmax, ng/mL
COc1cc(-n2cc(-c3ccc4nc(N)nc(N)c4c3)nn2)cc(OC)c1OC	52.2

---

- Test system: MDA-MB-231
- method-summary: Cytotoxicity against human MDA-MB-231 cells assessed as reduction in cell viability incubated for 72 hrs by MTS assay
- Type: functional, cell-based
- conditions: MDA-MB-231, 72 h
Listed here are compounds together with their documented IC50.

chemical-structure	qualifier-operator	IC50 [µM]
Cc1nc2ccc(CN(C)c3ccc(C(=O)N[C@@H](CCC(=O)O)C(=O)O)s3)cc2c(=O)[nH]1	>	20
COc1cc(-n2cc(-c3ccc4nc(N)nc(N)c4c3)nn2)cc(OC)c1OC	=	1.17
O=c1[nH]cc(F)c(=O)[nH]1	=	10.2

---

- method-summary: AUCt in BALB/c mouse at 20 mg/kg
- Format: ADME, organism-based
- Design: dose 20 mg/kg
- conditions: in vivo

chemical-structure	AUC(0-t) [ng·h/mL]
COc1cc(-n2cc(-c3ccc4nc(N)nc(N)c4c3)nn2)cc(OC)c1OC	1000

---

- method-summary: Clearance in BALB/c mouse at 10 mg/kg
- Type: ADME, organism-based
- conditions: in vivo

chemical-structure	clearance, mL/min/kg
COc1cc(-n2cc(-c3ccc4nc(N)nc(N)c4c3)nn2)cc(OC)c1OC	276

---

- method-summary: AUCt in BALB/c mouse at 10 mg/kg
- Format: ADME, organism-based
- Parameters: dose 10 mg/kg
- conditions: in vivo

chemical-structure	AUC(0-t) / ng·h/mL
COc1cc(-n2cc(-c3ccc4nc(N)nc(N)c4c3)nn2)cc(OC)c1OC	408

---

- method-summary: Clearance in BALB/c mouse at 20 mg/kg
- Type: ADME, organism-based
- conditions: in vivo

chemical-structure	clearance
COc1cc(-n2cc(-c3ccc4nc(N)nc(N)c4c3)nn2)cc(OC)c1OC	243 mL/min/kg

---

- method-summary: Cmax in BALB/c mouse at 5 mg/kg
- Assay type: ADME, organism-based
- Set-up: dose 5 mg/kg
- conditions: in vivo
assay-metric: Cmax (ng/mL)

chemical-structure	recorded-number
COc1cc(-n2cc(-c3ccc4nc(N)nc(N)c4c3)nn2)cc(OC)c1OC	26.1

---

- method-summary: Toxicity in BALB/c mouse assessed as maximum tolerable dose
- conditions: in vivo

chemical-structure	MTD (mg/kg)
COc1cc(-n2cc(-c3ccc4nc(N)nc(N)c4c3)nn2)cc(OC)c1OC	50

---

Each item that follows carries a reported IC50.
- System: U2OS
- method-summary: Cytotoxicity against human U2OS cells assessed as reduction in cell viability incubated for 72 hrs by MTS assay
- Format: functional, cell-based
assay-metric: IC50

chemical-structure	result
COc1cc(-n2cc(-c3ccc4nc(N)nc(N)c4c3)nn2)cc(OC)c1OC	3.64 µM
Cc1nc2ccc(CN(C)c3ccc(C(=O)N[C@@H](CCC(=O)O)C(=O)O)s3)cc2c(=O)[nH]1	> 20 µM
O=c1[nH]cc(F)c(=O)[nH]1	> 20 µM

Sourced from ChEMBL document CHEMBL5096229
